Values compiled from ChEMBL document CHEMBL1782048.

# targetEntity: MAP kinase-activated protein kinase 2 (Homo sapiens)
# Sequence (P49137 whole entry): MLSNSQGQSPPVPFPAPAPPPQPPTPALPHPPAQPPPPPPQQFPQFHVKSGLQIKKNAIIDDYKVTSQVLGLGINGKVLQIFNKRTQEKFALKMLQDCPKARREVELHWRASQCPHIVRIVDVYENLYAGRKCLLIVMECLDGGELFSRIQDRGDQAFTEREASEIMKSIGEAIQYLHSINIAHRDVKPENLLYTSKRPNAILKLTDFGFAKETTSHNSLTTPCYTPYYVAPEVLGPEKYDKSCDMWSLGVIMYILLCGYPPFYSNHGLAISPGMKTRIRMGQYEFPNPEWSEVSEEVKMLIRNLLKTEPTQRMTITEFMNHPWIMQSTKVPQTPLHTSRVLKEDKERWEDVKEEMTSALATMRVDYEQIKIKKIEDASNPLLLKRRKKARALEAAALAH
# testDetails: Inhibition of MK2 using biotin-LCAYSRALSRQLSSGVSEIRH substrate

{"structureSmiles": "CSc1nc(N)c(CNC(=S)Nc2ccccc2)nc1Cl", "targetEntity": "MAP kinase-activated protein kinase 2 (Homo sapiens)", "IC50": "> 50 µM"}
{"structureSmiles": "CCN(CC)CCCNC(=S)NCc1nc(Cl)cnc1N", "targetEntity": "MAP kinase-activated protein kinase 2 (Homo sapiens)", "IC50": "> 50 µM"}
{"structureSmiles": "Nc1ncc(Cl)nc1CNC(=S)NCCc1ccccc1", "targetEntity": "MAP kinase-activated protein kinase 2 (Homo sapiens)", "IC50": "> 50 µM"}
